assay-text: Viability qHTS for spleen associated tyrosine kinase inhibitor (SYKi) drug resistant MV4-11 cells (AID 1963824); note: nearly all actives have a fitted effect of over 35% in size
condition-summary: SYKi-resistant MV4-11 viability, CellTiter-Glo, 72 h; series mostly up to 45 µM
Results filed as inconclusive are left out. Calls of active or inactive are those of the source. Calls come from the whole dose curve; as a rule, active = well fitted cell-killing curve with a large enough effect; inconclusive = small, poorly fitted or top-dose-only effect, or effect the other way; inactive = no such curve, though single readings can be large or run the other way.
Hi there, use one of these labels in your reply, thanks! active, inactive

Some entries whose results are on file:
compound=Cc1nc(Nc2cnn(C3CCNCC3)c2)nc2c1N(C)C(=O)c1cc3ccccc3cc1N2C cat=active
compound="N=c1nc2n(cc1F)C1OC(CO)C(O)C1O2 (stereo not drawn)" cat=active
compound=COc1cc(N2CCC(O)CC2)ccc1Nc1nc(Nc2ccccc2S(=O)(=O)C(C)C)c2[nH]cnc2n1 cat=active
compound="C=CC(C)(O)CC/C=C(\\C)COC1O[C@H](CO)[C@@H](O)[C@H](O)[C@H]1O (stereo partly drawn)" cat=inactive
compound=CN1C(=O)c2ccccc2NC(=O)[C@]12O[C@@H]2c1cccc(O)c1 cat=inactive

Q) Look up the recorded call for C[C@@H](C(=O)Nc1ccc(Cl)cc1)C1CCC(c2ccnc3ccc(F)cc23)CC1 (stereo partly drawn) in this test.
A) active

Q) Per the records of this test, what outcome belongs to C=C(C)[C@H]1C[C@@H](O)C(=C)CC[C@@H](O)C(=C)[C@@H](O)C1 ?
A) inactive

Q) # lookup: test call for c1cc(-c2cnn3cc(-c4ccc(N5CCNCC5)cc4)cnc23)c2cccnc2c1
A) active

====

assay-text: Cellular viability qHTS for adrenocortical cancer (ACC) cell line NCI-H295R (AID 1963990); note: nearly all actives have a fitted effect of over 60% in size
condition-summary: CellTiter-Glo ATP luminescence, 48 h; series mostly up to 46.1 µM
Inconclusive results are not listed. The source made the active and inactive calls. Calls follow the shape of the dose curve; as a rule, active = well fitted cell-killing curve with a large enough effect; inconclusive = small, poorly fitted or top-dose-only effect; inactive = flat fitted curve, though single readings scatter.
Result category, one only: yes for active, no for inactive

Below, 3 compounds whose answers are already recorded.
compound=Cc1cc(O)c(-c2ccc([C@@H](C)CN(C)C)cc2)c2c1[nH]c(=O)c1sccc12 cat=yes
compound="CC(C)NC(=O)C1CCC(n2c(NC(=O)c3ccc(F)cc3)nc3ccc(CN4CCC(C(C)(C)O)CC4)cc32)CC1 (stereo not given)" cat=yes
compound=CC(C)(C)OC(=O)N[C@H]1CCCCCC=C[C@@H]2C[C@@]2(C(=O)NS(=O)(=O)C2CC2)NC(=O)[C@@H]2C[C@@H](OC(=O)N3Cc4cccc(F)c4C3)CN2C1=O cat=no

Q) Which outcome did this test record for the compound CCCCC[C@H](O)/C=C/[C@H]1[C@H](O)CC(=O)[C@@H]1CCCCCCC(=O)O ?
A) no

Q) Hi, sorry to bother you, what did the test record for Nc1nccc(Oc2ccc(NC(=O)c3c[nH]cc(-c4ccc(F)cc4)c3=O)cc2F)c1Cl ?
A) yes

Q) What call does the record list for C#CCN(C)CC1=Cc2ccccc2Oc2ccccc21 ?
A) no

Q) Returns: the outcome recorded for Nc1ccc(S(=O)(=O)Nc2ccnn2-c2ccccc2)cc1 in this assay.
A) no

Q) Could you please tell me the result logged for CC(C)(C)NCC(O)c1cc(O)cc(O)c1 (stereo not given) in this assay?
A) yes

====

assay-text: Quantitative highthroughput screen to assess conditional lethalithy of P12 Ichikawa cells grown in Human Plasma-Like Medium with dialyzed fetal bovine serum (HPLM+ds) (AID 1963879); note: nearly all actives have a fitted effect of over 35% in size
condition-summary: ATP luminescence, 48 h; viability; series mostly up to 45.8 µM
Results filed as inconclusive are left out. Calls of active or inactive are those of the source. The call rests on the fitted dose curve; in most records, active means well fitted cell-killing curve with a large enough effect; inconclusive means small, poorly fitted or top-dose-only effect; inactive means flat fitted curve, though single readings scatter.
Hi! Could you answer with just one of these? active, inactive

Worked examples, 2 compounds total:
compound="CN1C(=O)C(Cc2c[nH]c3ccccc23)NC1=S (stereo unspecified)" cat=inactive
compound="CCC(C)n1ncn(-c2ccc(N3CCN(c4ccc(OC[C@H]5CO[C@](Cn6cncn6)(c6ccc(Cl)cc6Cl)O5)cc4)CC3)cc2)c1=O (stereo partly specified)" cat=inactive

Q) Recorded test outcome, item Cc1[nH]nc2ccc(-c3cncc(OC[C@@H](N)Cc4ccccc4)c3)cc12
A) active

Q) For this compound, state the assay outcome: CCCCCNC(=O)N1CCC(CN(Cc2ccc(Cl)cc2)Cc2ccc([N+](=O)[O-])s2)C1 (stereo unspecified)
A) inactive

Q) Give the logged outcome of this assay for the following compound: CCCCC(F)(F)[C@@]1(O)CC[C@H]2[C@H](CC(=O)[C@@H]2CCCCCCC(=O)O)O1
A) inactive

Q) Could you check what this test reported for c1nc2nc(Nc3ccc(N4CCOCC4)cc3)nc(NC3CCCCC3)c2[nH]1 ?
A) active

Q) Query: recorded result category for COc1ccc2c(c1)CC[C@@H](CN(C)CC(=O)O)[C@H]2c1ccccc1 in this test
A) active

Q) Hi team, can someone confirm the assay call for CCc1ccc(OCc2ccccc2C(=O)Nc2ccc3nc(C)cc(N)c3c2)cc1 ?
A) active

Q) # outcome recorded in this test, key = Cc1nnc(NS(=O)(=O)c2ccc(N)cc2)s1
A) active

Q) Which outcome was entered for the compound CN1CCC[C@H]1CCO[C@](C)(c1ccccc1)c1ccc(Cl)cc1 in this test?
A) inactive

Q) Could you kindly confirm the outcome this assay logged for CC(C)(C(=O)NCC(F)(F)C(F)(F)F)C(=O)N[C@@H]1C(=O)Nc2ccccc2-c2ccccc21 ?
A) active

Q) Recorded test outcome, item COc1cc(OC)c(C=CS(=O)(=O)Cc2ccc(OC)c(NCC(=O)O)c2)c(OC)c1
A) active

Q) Which outcome was assigned to COc1cc2ncn(-c3cc(OCc4ccccc4C(F)(F)F)c(C(N)=O)s3)c2cc1OC in this test?
A) active

Q) Any idea what this test logged for Cc1cc(-c2ncc(CC(=O)Nc3ccc(-c4cnccn4)cn3)cc2C)ccn1 ?
A) inactive

Q) Outcome logged for FC(F)(F)c1ccc(CNc2ccc(Cc3c[nH]c4ncc(Cl)cc34)cn2)cn1 in this assay:
A) active

Q) Query: recorded result category for Nc1[nH]c(=O)ncc1F in this test
A) inactive

Q) Could you kindly confirm the outcome this assay logged for COc1cc2ncnc(Nc3cccc(Cl)c3)c2cc1OC ?
A) active

Q) Per the records of this test, what outcome belongs to CCCCCCCc1ccc(CCc2cccc(O)c2C(=O)O)cc1 ?
A) inactive
